tested on: Jurkat; assay: Cytotoxicity against human Jurkat cells incubated for 3 days by CellTiter-Glo luminescent assay; format: functional, cell-based; settings: 72 h
Recorded Endpoint: pIC50
# pIC50: negative log10 of molar concentration; output just the value

Consider the reported pIC50 for these molecules:
# Item Smiles, pIC50
measured = [
    ("O=C(Nc1ccc(Cl)cc1)c1ccc2cccnc2c1O", 6.29),
    ("O=C(Nc1ccc(C(F)(F)F)cc1)c1ccc(Cl)cc1O", 6.17),
    ("O=C(Nc1cc(C(F)(F)F)cc(C(F)(F)F)c1)c1ccc(Br)cc1O", 6.03),
    ("O=C(Nc1cc(C(F)(F)F)cc(C(F)(F)F)c1)c1cc(Br)ccc1O", 6.46),
    ("O=C(Nc1ccc(Cl)c(C(F)(F)F)c1)c1cc(F)ccc1O", 6.28),
]

Alright, here's another molecule for you.
Which measured pIC50 belongs to "N#Cc1ccc(NC(=O)c2ccc(Br)cc2O)cc1Cl" , tested on Jurkat? 6.12
